- TARGET OF ASSAY: adrenergic receptor α1B (Rattus norvegicus)
- Construct: membrane species from rat liver (rat of Wistar breed) are prepared; from tissue; host or cells: rat (Wistar) liver membranes
- Sequence (P15823 1-515): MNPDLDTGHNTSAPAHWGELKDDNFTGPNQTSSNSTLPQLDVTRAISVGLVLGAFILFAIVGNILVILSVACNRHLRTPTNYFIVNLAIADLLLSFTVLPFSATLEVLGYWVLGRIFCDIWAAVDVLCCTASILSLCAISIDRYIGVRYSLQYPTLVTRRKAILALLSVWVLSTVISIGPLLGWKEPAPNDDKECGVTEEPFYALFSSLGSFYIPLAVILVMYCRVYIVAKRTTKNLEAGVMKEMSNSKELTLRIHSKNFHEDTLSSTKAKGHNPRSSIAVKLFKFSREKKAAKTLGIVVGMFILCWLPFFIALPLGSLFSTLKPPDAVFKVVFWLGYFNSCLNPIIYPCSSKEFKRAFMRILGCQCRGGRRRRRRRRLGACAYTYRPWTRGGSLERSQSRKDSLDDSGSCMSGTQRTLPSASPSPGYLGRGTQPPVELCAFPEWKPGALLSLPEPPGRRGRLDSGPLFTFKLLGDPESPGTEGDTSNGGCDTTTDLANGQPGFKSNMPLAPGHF
- PROTOCOL NOTES: radioligand binding to adrenergic receptor α1B ([3H] Prazosin)
- EXPERIMENTAL CONTEXT: 10 μM ligand
ENDPOINT LABEL: α-Adrenoceptor α1B, % inhibition (%)
Answers are plain numbers, in %.

Field: example entries. Status: answers known.
Name the recorded α-Adrenoceptor α1B, % inhibition of the item Cc1ccc2c(c1)[C@@H]1CN(C)CCC[C@@H]1N2CCc1ccc(C)nc1.Cl.Cl.Cl (relative stereo) [1.6.1(2)•3HCl] in your answer.
93

Please list α-Adrenoceptor α1B, % inhibition recorded for the molecule Cc1ccc2c(c1)c1c(n2CCc2cccnc2)CCCN(C)C1.Cl.Cl [1.2.2(3-2)•2HCl]
75

Answer with the recorded α-Adrenoceptor α1B, % inhibition for the molecule listed here: Cc1ccc2c(c1)[C@H]1CN(C)CCC[C@@H]1N2CCc1ccc(C)nc1 (relative stereo)
94

Give recorded α-Adrenoceptor α1B, % inhibition. Cc1ccc2c(c1)[C@H]1CN(C)CCC[C@@H]1N2CCc1cccnc1 [1.6.2(10)•3HCl]
92

---
Assign α-Adrenoceptor α1B, % inhibition to the following record: CN1CCc2c(c3ccccc3n2Cc2ccccc2)C1.Cl [1.9(1)•HCl]
70

###

So I've got a bunch of molecules here, and I need their Dopamine receptor D2S, % inhibition values.
- TARGET OF ASSAY: human D2S receptor (Homo sapiens)
- Construct: expressed in transfected cells; host or cells: CHO
- PROTOCOL NOTES: radioligand binding to dopamine receptor D2S ([3H] Spiperone)
- EXPERIMENTAL CONTEXT: 10 μM ligand
- Source text: 7-C. […] For this purpose sDNA of human D2S receptor is expressed in CHO cells, as described in [Hayes G, Biden T J, Selbie L A and Shine J, Structural subtypes of the dopamine D2 receptor are functionally distinct. […] Mol. Endocrinol. […] Mol. Endocrinol. […] Spiperone is used as positive control.
A bare number is not enough; add the unit after it.

Report value only: Dopamine receptor D2S, % inhibition, human D2S receptor (Homo sapiens), Cc1ccc2c(c1)[C@H]1CN(C)CCC[C@@H]1N2CCc1cccnc1 [1.6.2(10)•3HCl]
33%

Jot down Dopamine receptor D2S, % inhibition (human D2S receptor (Homo sapiens)) of Cc1ccc2c(c1)[C@@H]1CN(C)CCC[C@@H]1N2CCc1ccc(C)nc1.Cl.Cl.Cl (relative stereo) [1.6.1(2)•3HCl] .
31%

Specify the recorded Dopamine receptor D2S, % inhibition for CN1CCc2c(c3ccccc3n2Cc2ccccc2)C1 [1.9(1)•½NDSA] , system: human D2S receptor (Homo sapiens).
51%

Proceeding to the next molecule to report its Dopamine receptor D2S, % inhibition.
Provide the reported Dopamine receptor D2S, % inhibition (system: human D2S receptor (Homo sapiens)) for Cc1ccc2c(c1)[C@H]1CN(C)CCC[C@@H]1N2CCc1ccc(C)nc1 (relative stereo) [1.6.2(11)]
31%

###

- TARGET OF ASSAY: human 5-HT7 receptor (Homo sapiens, UniProt P34969)
- Construct: expressed in transfected cells; host or cells: CHO
- Sequence (P34969 whole entry): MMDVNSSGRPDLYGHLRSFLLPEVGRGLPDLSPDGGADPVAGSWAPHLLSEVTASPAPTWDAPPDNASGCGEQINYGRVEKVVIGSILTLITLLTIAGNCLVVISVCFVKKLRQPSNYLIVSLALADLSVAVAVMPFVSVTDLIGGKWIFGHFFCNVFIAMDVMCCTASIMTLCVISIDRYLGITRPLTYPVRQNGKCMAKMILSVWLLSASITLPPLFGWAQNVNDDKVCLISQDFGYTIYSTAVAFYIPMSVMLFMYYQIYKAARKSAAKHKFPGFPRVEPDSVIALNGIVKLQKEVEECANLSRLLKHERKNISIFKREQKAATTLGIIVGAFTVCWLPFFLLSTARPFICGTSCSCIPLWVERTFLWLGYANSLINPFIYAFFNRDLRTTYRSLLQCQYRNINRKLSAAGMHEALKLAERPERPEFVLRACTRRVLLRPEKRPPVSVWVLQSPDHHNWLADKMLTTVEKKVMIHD
- PROTOCOL NOTES: radioligand binding to serotonin receptor 5-HT7 ([3H] Lysergic acid diethylamide)
- EXPERIMENTAL CONTEXT: 10 μM ligand
Counter-ions that a name gives are not always drawn.
Assign Met to entries whose 5-HT7 % inhibition meets or exceeds 90%; assign Not met to the rest.

Here's what some known entries look like.
Check this molecule for 5-HT7 % inhibition at or above 90%: COc1ccc(CCn2c3c(c4cc(C)ccc42)CN(C)CC3)cc1.Cl [1.1.2(1-14)•HCl]
Met

Decide: is the reported value of 5-HT7 % inhibition for Cc1ccc2c(c1)c1c(n2CCc2ccc(C(F)(F)F)cc2)CCN(C)C1.Cl [1.1.2(1-18)•HCl] equal to or greater than 90%?
Met

Has Cc1ccc2c(c1)c1c(n2CCc2ccc(F)cc2)CCN(C)C1.Cl [1.1.2(1-16)•HCl] a recorded 5-HT7 % inhibition greater than or equal to 90%?
Met

Hi, just wondering whether Cc1ccc2c(c1)[C@@H]1CN(C)CCC[C@@H]1N2CCc1ccc(C)nc1.Cl.Cl.Cl (relative stereo) [1.6.1(2)•3HCl] shows 5-HT7 % inhibition of 90% or higher.
Not met

Form field: 5-HT7 % inhibition at least 90%? Entry: Cc1ccc2c(c1)c1c(n2Cc2ccccc2)CCCN(C)C1.Cl [1.10(4)•HCl]
Not met

Threshold query (5-HT7 % inhibition >= 90%) on "Cc1ccc2c(c1)c1c(n2/C=C\c2ccccc2)CCN(C)C1"
Met

---
Hello, I need to know if CN1CCc2c(c3cc(C(F)(F)F)ccc3n2CCc2ccccc2)C1.Cl [1.1.2(1-7)•HCl] has measured 5-HT7 % inhibition not below 90%. Thanks!
Met

Is the recorded value of 5-HT7 % inhibition equal to or greater than 90% for this molecule? CN1CCc2c(c3cc(F)ccc3n2Cc2ccccc2)C1.Cl [1.9(3)•HCl]
Not met

# check: 5-HT7 % inhibition of Cc1ccc2c(c1)c1c(n2CCc2ccccc2)CCCN(C)C1 [1.2.2(1-2)•HCl] is greater than or equal to 90%
Met

Does 5-HT7 % inhibition meet or surpass 90% for CN1CCc2c(c3cc(F)ccc3n2CCCc2ccccc2)C1.Cl [1.3.3(8)•HCl] ?
Not met

###

- TARGET OF ASSAY: human D2S receptor (Homo sapiens, UniProt P14416)
- Sequence (P14416 1-414 isoform P14416-2): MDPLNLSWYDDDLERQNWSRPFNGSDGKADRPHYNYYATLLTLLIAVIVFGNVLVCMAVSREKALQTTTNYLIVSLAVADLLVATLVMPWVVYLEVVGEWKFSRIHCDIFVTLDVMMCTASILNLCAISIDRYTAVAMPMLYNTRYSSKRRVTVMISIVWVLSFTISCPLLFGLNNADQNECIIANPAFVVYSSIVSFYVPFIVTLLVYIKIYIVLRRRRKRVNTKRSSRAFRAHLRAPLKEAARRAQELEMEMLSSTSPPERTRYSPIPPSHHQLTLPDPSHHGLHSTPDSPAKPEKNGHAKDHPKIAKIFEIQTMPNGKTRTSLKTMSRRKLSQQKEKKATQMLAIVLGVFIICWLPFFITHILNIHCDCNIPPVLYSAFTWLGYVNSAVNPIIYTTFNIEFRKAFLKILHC
ENDPOINT LABEL: Ki (nM)
Answers are plain numbers, in nM.

Would you please give the reported Ki of CN1CCc2c(c3ccccc3n2Cc2ccccc2)C1 [1.9(1)•½NDSA] with human D2S receptor (Homo sapiens, UniProt P14416)?
1080

###

- TARGET OF ASSAY: recombinant human 5-HT6 receptor (Homo sapiens, UniProt P50406)
- Sequence (P50406 whole entry): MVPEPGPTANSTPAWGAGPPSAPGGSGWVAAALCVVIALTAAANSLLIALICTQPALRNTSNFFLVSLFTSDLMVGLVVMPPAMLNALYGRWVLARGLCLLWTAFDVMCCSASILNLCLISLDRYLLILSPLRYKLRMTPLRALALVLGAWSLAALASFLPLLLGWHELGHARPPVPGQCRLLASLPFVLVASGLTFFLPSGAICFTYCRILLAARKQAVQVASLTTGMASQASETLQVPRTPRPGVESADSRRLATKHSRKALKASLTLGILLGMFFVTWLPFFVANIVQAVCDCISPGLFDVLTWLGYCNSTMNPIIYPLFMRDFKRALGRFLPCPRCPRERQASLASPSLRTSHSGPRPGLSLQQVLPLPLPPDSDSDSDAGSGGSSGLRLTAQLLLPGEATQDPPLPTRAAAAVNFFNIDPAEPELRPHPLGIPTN
- PROTOCOL NOTES: radioligand binding to serotonin receptor 5-HT6 ([3H] Lysergic acid diethylamide)
Kindly state Ki for each of the entries shown.
One number for each entry, in nM.

For Cc1ccc2c(c1)c1c(n2CCc2ccccn2)CCN(C)C1.Cl.Cl [1.1.2(2-3)•2HCl] , write its Ki.
50.5

In one line, give reported Ki of the entry CN1CCc2c(c3ccccc3n2Cc2ccccc2)C1.Cl [1.9(1)•HCl] .
153

Name the recorded Ki of the item CN1CCc2c(c3ccccc3n2Cc2ccccc2)C1 [1.9(1)•½NDSA] in your answer.
47.6

Now look at this entry.
Please report Ki for the following compound: Cc1ccc(S(=O)(=O)n2c3c(c4cc(C)ccc42)CN(C)CCC3)cc1.Cl [1.8.1(3)•HCl]
15.9

###

So I've got a bunch of compounds here, and I need their Histamine receptor H1, % inhibition values.
- TARGET OF ASSAY: human H1 receptor (Homo sapiens, UniProt P35367)
- Construct: expressed in transfected cells; host or cells: CHO-K1
- Sequence (P35367 whole entry): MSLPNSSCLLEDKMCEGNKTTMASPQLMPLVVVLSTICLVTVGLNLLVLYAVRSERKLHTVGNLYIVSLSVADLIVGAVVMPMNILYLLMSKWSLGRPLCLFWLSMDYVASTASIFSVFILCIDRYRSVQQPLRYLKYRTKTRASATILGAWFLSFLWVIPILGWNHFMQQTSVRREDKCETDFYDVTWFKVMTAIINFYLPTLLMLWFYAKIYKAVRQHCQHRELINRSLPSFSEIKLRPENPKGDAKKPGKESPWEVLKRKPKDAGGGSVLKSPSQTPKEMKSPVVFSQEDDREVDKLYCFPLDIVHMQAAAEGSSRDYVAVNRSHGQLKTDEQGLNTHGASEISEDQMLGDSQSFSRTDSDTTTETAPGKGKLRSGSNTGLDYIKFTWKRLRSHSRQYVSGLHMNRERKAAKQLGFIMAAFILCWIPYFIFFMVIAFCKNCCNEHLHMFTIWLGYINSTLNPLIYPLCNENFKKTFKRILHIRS
- PROTOCOL NOTES: radioligand binding to histamine receptor H1 ([3H] Pyrilamine)
- EXPERIMENTAL CONTEXT: 10 μM ligand
Give bare numbers, in %.

Some entries whose results are on file:
Find Histamine receptor H1, % inhibition for CN1CCc2c(c3ccccc3n2Cc2ccccc2)C1.Cl [1.9(1)•HCl] on human H1 receptor (Homo sapiens, UniProt P35367) and write it down.
97

// fetch Histamine receptor H1, % inhibition; item: Cc1ccc2c(c1)[C@H]1CN(C)CCC[C@@H]1N2CCc1cccnc1 [1.6.2(10)•3HCl] ; system: human H1 receptor (Homo sapiens, UniProt P35367)
103

Enter Histamine receptor H1, % inhibition (test system human H1 receptor (Homo sapiens, UniProt P35367)) for Cc1ccc2c(c1)c1c(n2CCc2ccccn2)CCN(C)C1.Cl.Cl [1.1.2(2-3)•2HCl]
98

Please tell me the measured Histamine receptor H1, % inhibition for Cc1ccc2c(c1)[C@H]1CN(C)CCC[C@@H]1N2CCc1ccc(C)nc1 (relative stereo) ; system: human H1 receptor (Homo sapiens, UniProt P35367).
100

Supply Histamine receptor H1, % inhibition measured with human H1 receptor (Homo sapiens, UniProt P35367) for Cc1ccc(S(=O)(=O)n2c3c(c4cc(C)ccc42)CN(C)CCC3)cc1.Cl [1.8.1(3)•HCl] .
95

In the following, a different compound is considered.
# return Histamine receptor H1, % inhibition of Cc1ccc2c(c1)[C@@H]1CN(C)CCC[C@@H]1N2CCc1ccc(C)nc1.Cl.Cl.Cl (relative stereo) [1.6.1(2)•3HCl] (system: human H1 receptor (Homo sapiens, UniProt P35367))
102
